Tested on: HL-60
test_description: Cell proliferation assay (CellTiter-Glo), HL-60
Type: cell-based
experimental_conditions: Homo sapiens, HL-60 cells, 72 h
parameter_measured: IC50

Here's what some known entries look like.
[
  {
    "molecule": "Cc1nnn2c1-c1ccccc1N(c1cccc(C(O)CO)c1)CC2 (centres unmarked)",
    "result": "1000 to 5000 nM"
  },
  {
    "molecule": "Cc1nnn2c1-c1ccccc1N(c1ccc(Cl)cc1)CC2CCO (centres unmarked)",
    "result": "1000 to 5000 nM"
  },
  {
    "molecule": "COC(=O)c1ccc2c(c1)N(c1ccc(Cl)cc1)CCn1nnc(C)c1-2",
    "result": "< 1000 nM"
  },
  {
    "molecule": "Cc1nnn2c1-c1ccc(-c3nn[nH]n3)cc1N(c1ccc(Cl)cc1)CC2",
    "result": "> 5000 nM"
  }
]

// switching to the query molecule
(Q) Looking for the measured IC50 of Cc1nnn2c1-c1ccc(Br)cc1N(c1ccc(Cl)cc1)CC2C (centres unmarked) , can you help?
(A) < 1000 nM

* * *

BRD-4 (Domain 2) (Homo sapiens (Human), UniProt O60885) data, read-out pIC50
pIC50: −log10 of the molar value.

Solved cases (2 shown):
[
  {
    "compound": "Cc1nnn2c1-c1ccc(C#N)cc1N(c1ccc(Cl)cc1)CC2",
    "experimental_system": "BRD-4 (Domain 2) (Homo sapiens (Human), UniProt O60885)",
    "pIC50": "> 7.00"
  },
  {
    "compound": "Cc1nnn2c1-c1ccccc1N(c1ccc(Cl)cc1)CC2CCO (stereo not drawn)",
    "experimental_system": "BRD-4 (Domain 2) (Homo sapiens (Human), UniProt O60885)",
    "pIC50": "> 7.00"
  }
]

Would you kindly look at the next entry?
(Q) Requested read-out pIC50, target or system BRD-4 (Domain 2) (Homo sapiens (Human), UniProt O60885), entry Cc1ccc(-c2ccc3c(c2)N(c2ccc(Cl)cc2)CCn2nnc(C)c2-3)cn1
(A) > 7.00

* * *

System: HL-60
test_description: Cell proliferation assay (CellTiter-Glo), HL-60
Format: cell-based
experimental_conditions: Homo sapiens, HL-60 cells, 72 h
Procedure: The cells were prepared in the required fashion (suspension or adherent). The cells were initially washed once in the culture medium that they would be finally treated in. Following this 10 ml of the test medium was added and the cells. […] The cells were counted and then the volume was spun down to the volume necessary for the total number of cells needed. […] Afterwards 40 μL of the reagent was added to 100 μL of the culture medium. […] The luminescence could then be read using a luminescence plate reader.
parameter_measured: IC50

Consider the reported IC50 for these compounds:
[
  {
    "compound": "Cc1nnn2c1-c1ccccc1N(c1ccc(Cl)cc1)C[C@@H]2C [Example 13]",
    "IC50": "< 1 µM"
  },
  {
    "compound": "Cc1nnn2c1-c1ccccc1N(c1ccc(Cl)cc1)C[C@H]2C [Example 16]",
    "IC50": "< 1 µM"
  },
  {
    "compound": "Cc1nnn2c1-c1ccc(C(=O)Nc3ccccc3)cc1N(c1ccc(Cl)cc1)CC2 [Example 36]",
    "IC50": "< 1 µM"
  },
  {
    "compound": "Cc1nnn2c1-c1ccc(C(=O)N[C@@H](C)c3ccc(F)cc3)cc1N(c1ccccc1)CC2 [Example 43]",
    "IC50": "< 1 µM"
  },
  {
    "compound": "Cc1nnn2c1-c1ccc(C(=O)NS(=O)(=O)c3ccccc3)cc1N(c1ccc(Cl)cc1)CC2 [Example 40]",
    "IC50": "> 5 µM"
  },
  {
    "compound": "Cc1nnn2c1-c1ccc(-c3cnc(N)nc3)cc1N(c1ccc(Cl)cc1)CC2 [Example 12]",
    "IC50": "< 1 µM"
  },
  {
    "compound": "Cc1nnn2c1-c1ccc(C(=O)O)cc1N(c1ccc(Cl)cc1)CC2 [Example 32]",
    "IC50": "> 5 µM"
  },
  {
    "compound": "Cc1ccc(-c2ccc3c(c2)N(c2ccc(Cl)cc2)CCn2nnc(C)c2-3)cn1 [Example 7]",
    "IC50": "< 1 µM"
  }
]

// next item, IC50 requested
(Q) Request the reported IC50 associated with Cc1nnn2c1-c1ccccc1N(c1cccc(Br)c1)CC2 [Example 22]
(A) 1 to 5 µM

* * *

A collection of compounds and their measured IC50
experimental_system: BRD-2 (Domain 1) (Homo sapiens (Human), UniProt P25440)
Sequence (P25440 74-180): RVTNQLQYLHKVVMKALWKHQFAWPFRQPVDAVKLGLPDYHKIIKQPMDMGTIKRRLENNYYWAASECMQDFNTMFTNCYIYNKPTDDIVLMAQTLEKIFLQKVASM

# example entries with known answers
[
  {
    "compound": "Cc1nnn2c1-c1ccccc1N(c1ccc(Cl)cc1)CC2CCO (stereo not drawn)",
    "parameter_measured": "IC50",
    "result": "100 to 1000 nM"
  },
  {
    "compound": "Cc1nnn2c1-c1ccc(C(=O)NC(c3ccccc3)c3ccccc3)cc1N(c1ccc(Cl)cc1)CC2",
    "parameter_measured": "IC50",
    "result": "100 to 1000 nM"
  },
  {
    "compound": "FC(F)c1nnn2c1-c1ccccc1N(c1ccc(Cl)cc1)CC2",
    "parameter_measured": "IC50",
    "result": "> 1000 nM"
  },
  {
    "compound": "Cc1nnn2c1-c1ccccc1N(c1ccc(Cl)cc1)C[C@H]2C",
    "parameter_measured": "IC50",
    "result": "< 100 nM"
  }
]

(Q) Recorded IC50 of Cc1nnn2c1-c1ccc(CCN3CCOCC3)cc1N(c1ccc(Cl)cc1)CC2 , please.
(A) 100 to 1000 nM

(Q) Please look up its IC50: Cc1nnn2c1-c1ccc(C(=O)O)cc1N(c1ccc(Cl)cc1)CC2
(A) 100 to 1000 nM
